System: HEK-293T
Test: Multiplex assay against HEK293T
Format: toxicity, cell-based
Conditions: human, 48 h, 10 µM, compound concentration 10 uM, replicate 1
// NB: equality with 30% counts as no; only Population Hoechst High Intensity Objects (%) strictly below is yes

Answered cases to consult:
[[record]]
compound = "CN1CCC(=C2c3ccccc3CC(=O)c3sccc32)CC1.O=C(O)/C=C/C(=O)O [KETOTIFEN FUMARATE]"
assay_target = "HEK-293T"
label = "yes"

[[record]]
compound = "CN1C2CCC1CC(OC(c1ccc(F)cc1)c1ccc(F)cc1)C2.Cl (stereo unspecified)"
assay_target = "HEK-293T"
label = "yes"

[[record]]
compound = "CN(C)C(=O)C(CCN1CCC(O)(c2ccc(Cl)cc2)CC1)(c1ccccc1)c1ccccc1.Cl [LOPERAMIDE HYDROCHLORIDE]"
assay_target = "HEK-293T"
label = "yes"

[[record]]
compound = "Cc1cn(-c2cc(NC(=O)c3ccc(C)c(Nc4nccc(-c5cccnc5)n4)c3)cc(C(F)(F)F)c2)cn1 [NILOTINIB]"
assay_target = "HEK-293T"
label = "no"

[[record]]
compound = "O=C1NC(=O)C(c2cnc3ccccn23)=C1c1cn2c3c(cc(F)cc13)CN(C(=O)N1CCCCC1)CC2 [LY-2090314]"
assay_target = "HEK-293T"
label = "yes"


Does the reported Population Hoechst High Intensity Objects (%) of the following compound sit strictly below 30%? `O=C(Nc1ccc(Cl)cc1)Nc1cccc(-c2cccc(N3CCCC3)n2)c1` no

Check `S=C(NCCCc1c[nH]cn1)NCCCN(Cc1ccc(Cl)c(Cl)c1)c1ccc(Br)cn1` too. yes

How about this compound: `Cc1cc(C)c(S(=O)(=O)N(Cc2ccc(-c3cccc(S(C)(=O)=O)c3)cc2)Cc2ccc(C(F)(F)F)o2)c(C)c1` yes

Query `Cc1ccc(C(=O)Nc2cccc(C(F)(F)F)c2)cc1Nc1nc(-c2cccnc2)nc2c1cnn2C` next yes

Consider next the compound `Cl.Oc1ccc2c3c1O[C@H]1c4[nH]c5c(c4C[C@@]4(O)[C@@H](C2)N(CC2CC2)CC[C@]314)C[C@@]1(O)[C@H]2Cc3ccc(O)c4c3[C@@]1(CCN2CC1CC1)[C@H]5O4` in the same way. yes

Same question, `CCn1c(=O)c(-c2ccc(-c3cncs3)cc2Cl)cc2cnc(Nc3ccc(N4CCN(C)CC4)cc3)nc21` this time no

Cool, now `Cl.O=c1c2cccn2c2ccccc2n1CCCN1CCC(c2ccc(Cl)cc2)CC1` no

How about this compound: CCCn1c(=O)c2[nH]c(-c3cnn(Cc4cccc(C(F)(F)F)c4)c3)nc2n(CC)c1=O [GS 6201] yes

Next compound up: CCOc1cc2ncc(C#N)c(Nc3ccc(OCc4ccccn4)c(Cl)c3)c2cc1NC(=O)/C=C/CN(C)C [NERATINIB] no

Similarly, `O=C(Nc1ccc(-c2ccnc(Nc3ccc(N4CCOCC4)cc3)n2)cc1)[C@@H]1CCCN1` ? yes

###

Tested on: Fibroblast
Assay: Multiplex assay against human fibroblast
Type: toxicity, cell-based
Conditions: 24 h, 10 µM, compound concentration 10 uM, replicate 1
Assign Population Tubulin-Different-Phenotype (%) to each entry below.
Answers are plain numbers, in %.

[[record]]
compound = "COc1ccc(S(=O)(=O)N(CCO)c2ccccc2CN(C)C/C=C/c2ccc(Cl)cc2)cc1.O=P(O)(O)O"
value_unit = "%"
readout_value = 14

[[record]]
compound = "Cc1ccc2nc(NCCN)c3ncc(C)n3c2c1.O=C(O)C(F)(F)F.O=C(O)C(F)(F)F"
value_unit = "%"
readout_value = 3

[[record]]
compound = "COc1cc(N2CCN(C)CC2)ccc1Nc1ncc2c(n1)N(C)c1ccccc1C(=O)N2C"
value_unit = "%"
readout_value = 74

[[record]]
compound = "CCOC(=O)c1c(C)[nH]c2ccc3c(c12)CN1CCc2cc(OC)ccc2C1O3 (stereo unspecified)"
value_unit = "%"
readout_value = 86

[[record]]
compound = "COc1cccc2cc(-c3nc([C@H]4CC[C@H](C(=O)O)CC4)n4ncnc(N)c34)[nH]c12"
value_unit = "%"
readout_value = 0

[[record]]
compound = "C=CCn1c(=O)c2cnc(Nc3ccc(N4CCN(C)CC4)cc3)nc2n1-c1cccc(C(C)(C)O)n1"
value_unit = "%"
readout_value = 21

[[record]]
compound = "O=C1N/C(=N/c2ccccc2F)S/C1=C\\c1ccc(C(=O)O)cc1"
value_unit = "%"
readout_value = 33

[[record]]
compound = "CN1CCN(C(=O)C(C)(C)c2ccc(C(=O)Nc3cn4cc(-c5cc(C(C)(C)C)cc(C(C)(C)C)c5)ccc4n3)cc2)CC1"
value_unit = "%"
readout_value = 30


Provide the reported Population Tubulin-Different-Phenotype (%) of each entry below, same order.
1. Cc1ccc(C(=O)Nc2cccc(C(F)(F)F)c2)cc1Nc1nc(-c2cccnc2)nc2c1cnn2C
2. O=C(Cc1ccc(-c2ccc(OCCN3CCOCC3)cc2)cn1)NCc1ccccc1
3. S=C(NCCCc1c[nH]cn1)NCCCN(Cc1ccc(Cl)c(Cl)c1)c1ccc(Br)cn1

[81, 35, 93]

Please look at the items below and tell me Population Tubulin-Different-Phenotype (%) for each one, in order.
1. C=C1/C(=C\C=C2/CCC[C@]3(C)[C@@H]([C@H](C)/C=C/[C@H](C)C(C)C)CC[C@@H]23)C[C@@H](O)C[C@@H]1O
2. CCOc1cc2ncc(C#N)c(Nc3ccc(OCc4ccccn4)c(Cl)c3)c2cc1NC(=O)/C=C/CN(C)C
3. CN1CCC(=C2c3ccccc3CC(=O)c3sccc32)CC1.O=C(O)/C=C/C(=O)O [KETOTIFEN FUMARATE]
4. CCN1CCN(c2ccc(Nc3cc(N(C)C(=O)Nc4c(Cl)c(OC)cc(OC)c4Cl)ncn3)cc2)CC1
5. CCCS(=O)(=O)c1nc(NC2CC2)cc(-c2ccc3c(ccn3C3CC(C)(C)NC(C)(C)C3)c2)n1

1. 9
2. 15
3. 83
4. 3
5. 54
